B1: r4_43_TrROS_Hall (parent)
chain: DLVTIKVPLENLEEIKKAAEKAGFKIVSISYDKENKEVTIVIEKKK

- Variants of: B1
- PROTOCOL_TEXT: folding stability dG (cDNA display proteolysis); higher = more stable
- CONDITION_NOTES: PBS, room temperature
REPORTED_PROPERTY: folding stability dG (kcal/mol)
Note: unit kcal/mol is implicit; provide only the numeric part.

These recorded examples may help you get a feel for the data.
> print(dat)
                        biopolymer.sequence  unit.string  number
1  DLVTIKVPLENLEESKKAAEKAGFKIVSISYDKENKEVTIVIEKKK [I15S]     kcal/mol    3.41
2  CLVTIKVPLENLEEIKKAAEKAGFKIVSISYDKENKEVTIVIEKKK [D1C]     kcal/mol     3.7
3  DLVTIKVPLENLEEIKKAAEKAGFKEVSISYDKENKEVTIVIEKKK [I26E]     kcal/mol    1.75
4  DLVTIKVPLENLEEIKKAAEKAGFKIVSISYDKENKEVTIVPEKKK [I42P]     kcal/mol  -0.342

For the next question, use this variant.
q: Please look up its folding stability dG: DLVTIKVPLENLEEIKKAAEKAGFKIVSISYDKENKEVTIVIEKAK [K45A]
a: 3.92
